Taken from PubChem BioAssay.

test.method.notes: sensitizers of A549 cells to miR-34 induction, primary screen, imaging, A549 dox-inducible miR-34, nuclei and caspase counts (AID 1347080); also: test concentration not given here
applied.conditions: A549 miR-34 inducible, Hoechst nuclei count, 48 h; measured here: total cells without miR-34 induction
List of cell count values.
In your answer, state the number alone without any accompanying words.

[[record]]
compound = "C[C@@H]1CC(=O)NN=C1c1ccc(NN=C(C#N)C#N)cc1"
experimental_value = 9020

[[record]]
compound = "CCN(CCO)CCCC(C)Nc1ccnc2cc(Cl)ccc12 (stereo not given)"
experimental_value = 13500


// fetch cell count given entry "O[C@@H](c1cc(C(F)(F)F)nc2c(C(F)(F)F)cccc12)[C@H]1CCCCN1"
597

Please look at this compound and report its cell count: "CN(C)CCc1c[nH]c2ccc(C[C@H]3COC(=O)N3)cc12"
13300

Determine from records and report cell count for "CCCCCCCCCCC[C@@H](C[C@@H]1OC(=O)[C@H]1CCCCCC)OC(=O)[C@H](CC(C)C)NC=O"
9060

Entry "CC1(C)O[C@@H]2C[C@H]3[C@@H]4CCC5=CC(=O)C=C[C@]5(C)[C@@]4(F)[C@@H](O)C[C@]3(C)[C@]2(C(=O)CO)O1" needs its cell count filled in; supply it.
7450

Quick one: give measured cell count for "CC1=C(C(=O)O)N2C(=O)[C@@H](NC(=O)[C@H](N)c3ccccc3)[C@H]2SC1"
10900

Recall and state the measured cell count for "C=CCCCCCCCCC(=O)O" .
13300

Could you please provide reported cell count for "COc1ccc(COc2ccc(Cc3cnc(N)nc3N)cc2OC)cc1" ? Thanks!
7840

Kindly indicate its recorded cell count. Item: "COc1cc2ncn(-c3cc(OCc4ccccc4C(F)(F)F)c(C(N)=O)s3)c2cc1OC"
1060
